# EXPERIMENT NOTES: Clinical plasma concentration (dose comparison and conversion)
# Format: in vivo
# MEASUREMENT SETUP: 1.8-3 g/m^2, administration with 12 times; converted from steady concentration; read-out: Molar concentration after conversion (steady concentration)
MEASUREMENT TYPE: concentration

The value of concentration measured for the compound Nc1ccn([C@@H]2O[C@H](CO)[C@@H](O)[C@@H]2O)c(=O)n1 [Cytarabine, cytarabine, reference compound] turned out to be 32 to 97 µM

* * *

# Tested on: SUP-T1 cells
# EXPERIMENT NOTES: In vitro cell proliferation assay, monotherapy (CellTiter-Glo)
# Type: cell-based
# MEASUREMENT SETUP: Homo sapiens, experiments that were conducted previously, read-out: IC50 (superscript 2)
MEASUREMENT TYPE: pIC50
Numbers only, as −log10 of the molar value.

Looking up C[C@H](OP(=O)(N1CC1)N1CC1)c1ccc([N+](=O)[O-])c(Oc2cccc(C(=O)N(C)C)c2)c1 , I see its pIC50 listed as 8.43
